# Lookup of reported T/C keyed by entry
- Tested on: CD2F1 mice, L1210 leukemia ip, survival T/C
- ASSAY_PROTOCOL: NCI In Vivo Anticancer Drug Screen. Data for tumor model L1210 Leukemia (intraperitoneal) in CD2F1 (CDF1) mice
- CONDITIONS_USED: endpoint: mean survival time; dose: 50.0 mg/kg/injection; schedule: Q01DX005 (ip); vehicle: distilled water + Tween-80; higher = longer survival
Inconclusive results and toxic doses are left out.
MEASURE_NAME: T/C

* CCOC(=O)CCCSc1n[nH]c(=O)[nH]c1=O | 96 % of control
* O=c1n(C2OC(CO)C(O)C2O)ccc2nnnn12 (stereo unspecified) | 100 % of control
* CC(=O)OCC1OC(n2ncc3c(N4CC4)ncnc32)C(OC(C)=O)C1OC(C)=O (stereo unspecified) | 99 % of control
* O=N/N=c1/c2[nH]cnc2ncn1O | 89 % of control
* O=c1[nH]cnc2c1nc(NCc1ccccc1)n2C1OC(CO)C(O)C1O (stereo unspecified) | 96 % of control
* Nc1nc2c(nc(NCc3ccccc3)n2C2OC(CO)C(O)C2O)c(=O)[nH]1 (stereo unspecified) | 90 % of control

====

# Lookup of reported T/C keyed by entry
- Tested on: CD2F1 mice, L1210 leukemia ip, survival T/C
- ASSAY_PROTOCOL: NCI In Vivo Anticancer Drug Screen. Data for tumor model L1210 Leukemia (intraperitoneal) in CD2F1 (CDF1) mice
- CONDITIONS_USED: endpoint: mean survival time; dose: 200.0 mg/kg/injection; schedule: Q01DX005 (ip); vehicle: distilled water + Tween-80; higher = longer survival
- Method: The antitumor activity of compounds was measured in mice bearing transplantable tumors. Survival or tumor size were measured and the results are expressed as the measurement made in the treated group (T) divided by the measurement made in the vehicle treated control group (C). The tumor model used in this assay is L1210 Leukemia (intraperitoneal) in CD2F1 (CDF1) mice
Toxic doses and inconclusive results are not listed.
MEASURE_NAME: T/C

• Nc1nc(=O)n2ccn(C3OC(CO)C(O)C3O)c2n1 (stereo not drawn) = 103 % of control
• CC(=O)NC1=CC(OC(C)=O)C(COC(C)=O)OC1n1cnc2c1c(=O)n(C)c(=O)n2C (stereo not drawn) = 88 % of control
• CCOC(=O)CCCCCSc1nn(C2OC(COC(=O)c3ccccc3)C(OC(=O)c3ccccc3)C2OC(=O)c2ccccc2)c(=O)[nH]c1=O (stereo not drawn) = 107 % of control
• O=C(O)CCCCCSc1nn(C2OC(CO)C(O)C2O)c(=O)[nH]c1=O (stereo not drawn) = 104 % of control
• CSc1nc(N)c2c3c(N)ncnc3n(C3OC(CO)C(O)C3O)c2n1 (stereo not drawn) = 97 % of control
• CC1(C)OCC(C2OC(On3nnc4ccc(Cl)cc43)C3OC(C)(C)OC23)O1 (stereo not drawn) = 105 % of control
• Nc1ncnc2nc(C3COCCO3)[nH]c12 (stereo not drawn) = 104 % of control
• CC(=O)OCC1OC(n2ncc3c(N4CC4)ncnc32)C(OC(C)=O)C1OC(C)=O (stereo not drawn) = 100 % of control

====

- System: CD2F1 mice, L1210 leukemia ip, survival T/C
- ASSAY_PROTOCOL: NCI In Vivo Anticancer Drug Screen. Data for tumor model L1210 Leukemia (intraperitoneal) in CD2F1 (CDF1) mice
- CONDITIONS_USED: endpoint: mean survival time; dose: 12.5 mg/kg/injection; schedule: Q04DX002 (ip); vehicle: saline; higher = longer survival
Inconclusive results and toxic doses are left out.
MEASURE_NAME: T/C

- CCN(CC)CCNc1cc(OC)cc2cccnc12: 98 % of control
- C1c2nnnn2Cc2nnnn21: 96 % of control
- CN(C)c1cccc(C(C)(C)C)n1: 98 % of control
- CC1(C[N+](C)(C)C)COC(C)(C)O1 (centres undefined): 95 % of control

Just for reference, PubChem BioAssay AID256 is where these values come from.
